biological target: human TLR7 (Homo sapiens (Human), UniProt Q9NYK1); assay: TLR7 reporter assay (HEK293-TLR-NF-κB inducible SEAP reporter); conditions: HEK293 cells stably expressing human TLR7 with NF-κB-driven SEAP reporter; 15-24 hours
Sequence (Q9NYK1 27-1049): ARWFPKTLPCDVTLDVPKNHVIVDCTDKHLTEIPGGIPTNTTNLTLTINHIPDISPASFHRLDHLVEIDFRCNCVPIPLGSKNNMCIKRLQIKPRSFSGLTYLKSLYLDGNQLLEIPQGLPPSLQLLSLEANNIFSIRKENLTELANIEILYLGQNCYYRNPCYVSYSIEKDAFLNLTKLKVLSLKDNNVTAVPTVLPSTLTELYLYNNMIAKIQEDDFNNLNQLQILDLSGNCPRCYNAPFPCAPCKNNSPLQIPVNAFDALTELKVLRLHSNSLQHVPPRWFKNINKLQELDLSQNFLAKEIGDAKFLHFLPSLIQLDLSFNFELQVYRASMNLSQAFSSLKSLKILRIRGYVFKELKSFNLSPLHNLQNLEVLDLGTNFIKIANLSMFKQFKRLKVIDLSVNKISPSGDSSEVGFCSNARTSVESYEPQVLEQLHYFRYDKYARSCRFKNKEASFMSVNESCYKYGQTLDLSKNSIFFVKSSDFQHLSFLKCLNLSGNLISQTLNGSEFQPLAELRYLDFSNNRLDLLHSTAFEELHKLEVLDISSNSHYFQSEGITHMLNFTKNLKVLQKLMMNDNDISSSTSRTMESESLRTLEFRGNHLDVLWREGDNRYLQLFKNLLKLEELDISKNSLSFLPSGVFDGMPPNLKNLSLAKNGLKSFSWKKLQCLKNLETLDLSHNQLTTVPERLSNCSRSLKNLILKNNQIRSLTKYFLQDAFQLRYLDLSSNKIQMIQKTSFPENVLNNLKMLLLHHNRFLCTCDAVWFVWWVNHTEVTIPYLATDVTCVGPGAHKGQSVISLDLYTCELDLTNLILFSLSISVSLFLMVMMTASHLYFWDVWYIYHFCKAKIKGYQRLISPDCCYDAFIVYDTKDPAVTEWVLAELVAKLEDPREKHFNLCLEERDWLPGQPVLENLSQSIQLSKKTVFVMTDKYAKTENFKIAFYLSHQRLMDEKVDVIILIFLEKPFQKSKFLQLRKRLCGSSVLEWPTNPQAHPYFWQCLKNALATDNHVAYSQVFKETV
outcome-measure: pEC50
Keep in mind that pEC50 stands for -log10 of concentration in molar terms.

Worked cases, pEC50 given:
- compound: "C#CCn1c(=O)n([C@@H]2O[C@H](CO)[C@H](O)[C@H]2O)c2nc(N)[nH]c(=O)c21 [Compound 5]"
  pEC50: 3.53
- compound: "C/C=C/Cn1c(=O)n([C@@H]2O[C@H](CO)[C@H](O)[C@H]2O)c2nc(N)[nH]c(=O)c21 [Compound 7]"
  pEC50: 3.27

Consider the record given below.
Prompt: For the compound C=CCn1c(=O)n([C@@H]2O[C@H](CO)[C@@H](O)[C@H]2O)c2nc(N)[nH]c(=O)c21 [loxoribine, reference compound] , give its measured pEC50 value.
Completion: 3.49
